assay: Water solubility (exploratory, 10 mM Tris-HCl, 20 °C); format: physicochemical; conditions: water (10 mM Tris-HCl buffer), pH 7.4

molecule | Solubility
O=C([O-])CN1CCN(CC(=O)[O-])CCN(CC(=O)N(CC(=O)NCC(CNC(=O)CN(C(=O)CN2CCN(CC(=O)[O-])CCN(CC(=O)[O-])CCN(CC(=O)[O-])CC2)c2ccccc2)(CNC(=O)CN(C(=O)CN2CCN(CC(=O)[O-])CCN(CC(=O)[O-])CCN(CC(=O)[O-])CC2)c2ccccc2)CNC(=O)CN(C(=O)CN2CCN(CC(=O)[O-])CCN(CC(=O)[O-])CCN(CC(=O)[O-])CC2)c2ccccc2)c2ccccc2)CCN(CC(=O)[O-])CC1.[Gd+3].[Gd+3].[Gd+3].[Gd+3] [Example 9] | >1000 mg/100 mL
CCN(CC(=O)NCC(CNC(=O)CN(CC)C(=O)CN1CCN(CC(=O)[O-])CCN(CC(=O)[O-])CCN(CC(=O)[O-])CC1)(CNC(=O)CN(CC)C(=O)CN1CCN(CC(=O)[O-])CCN(CC(=O)[O-])CCN(CC(=O)[O-])CC1)CNC(=O)CN(CC)C(=O)CN1CCN(CC(=O)[O-])CCN(CC(=O)[O-])CCN(CC(=O)[O-])CC1)C(=O)CN1CCN(CC(=O)[O-])CCN(CC(=O)[O-])CCN(CC(=O)[O-])CC1.[Gd+3].[Gd+3].[Gd+3].[Gd+3] [Example 2] | >1000 mg/100 mL
